Provenance of the data: a melting point compilation (Tetko et al.; mined from patent text by program, amines drawn as free bases though some values may be those of a salt)

Measured melting point, listed per entry.

• O=C(/C=C/c1ccc(S(=O)(=O)N2CCN(c3ccccc3F)CC2)cc1)NO = 196 to 197 °C

Bench note: what melting point did Cc1cc(C(N)=O)ncc1C(c1c(F)ccc(F)c1F)S(=O)(=O)CCC(C)(F)F (stereo unspecified) show?
165 to 166 °C

Bench note: what melting point did CCCc1c2nc(C(=O)O)cc(Cl)c2cc2c(=O)cc(C(=O)O)oc12 show?
336 to 338 °C

Bench note: what melting point did CCOC(=O)CCCCC(NS(=O)(=O)c1ccc(C)cc1)c1ccc2ccccc2c1 (stereo unspecified) show?
87 to 91 °C

###

Measurement Label: melting point

Example molecules with recorded melting point:
* CCOC(=O)CCc1cccc(N(C)C)c1 | 94 to 98 °C
* O=C(O)c1cc(Cl)cc(Cl)c1NS(=O)(=O)c1ccc(Cl)cc1 | 273 to 276 °C
* O=C(c1cc[nH]c1)c1ccc2ccccc2c1 | 134 to 136 °C
* CCCc1c(OCCc2cc3cc(CC(=O)O)ccc3[nH]2)ccc2c(-c3ccccc3)coc12 | 129 to 130 °C
* O=C(Nc1ccccc1)OCCCC(=O)c1ccccc1 | 121 to 123 °C
* Oc1nc2cc(F)ccc2n2cnnc12 | > 300 °C
* CCOC(=O)c1cc(N=Cc2ccccc2)ccc1OC(C)=O | 79 to 80 °C
* O=C1C(CCO)Oc2cc([N+](=O)[O-])ccc2N1Cc1ccccc1 (stereo not drawn) | 102 to 105 °C

Let's switch to this molecule now.
Bench note: what melting point did COc1ccccc1NC(=O)Nc1nc(Nc2ccccc2-c2ccccc2)nc(N(CCC(=O)O)Cc2ccc(F)cc2)n1 show?
108 °C
